For each record, write down the corresponding Ki.
Target: MMP-3 (Homo sapiens)
Construct: a DNA fragment containing a pro-region and a catalyst region in MMP-3 was also prepared; histidine tag (N)
Sequence (P08254 100-272 limits assumed): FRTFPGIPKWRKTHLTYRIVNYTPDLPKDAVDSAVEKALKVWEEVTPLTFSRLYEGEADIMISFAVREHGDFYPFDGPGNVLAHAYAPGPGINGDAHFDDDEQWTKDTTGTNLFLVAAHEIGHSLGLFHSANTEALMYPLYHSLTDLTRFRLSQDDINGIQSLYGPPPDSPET
Test: Measurement of matrix metalloprotease (MMP) inhibitory activity, MMP-3, fluorescence quenching peptide substrate
Conditions: recombinant MMP-3 activated with para-aminophenyl mercury acetate; 37° C., 2 hours; Ki calculated from IC50 and Km; read-out: Ki MMP3

Sample answers from the record:
molecule | Ki
CC#CCOc1ccc(S(=O)(=O)N2C[C@H](OC)[C@H](O)[C@@H](O)[C@@H]2C(=O)NO)cc1 [Compound (c)] | > 650 nM
CO[C@@H]1[C@@H](O)[C@@H](O)CN(S(=O)(=O)c2ccc(OCC#CCO)cc2)[C@H]1C(=O)NO [Compound (f)] | > 650 nM
CC#CCOc1ccc(S(=O)(=O)N2C[C@H](O)[C@H](O)[C@@H](O)[C@@H]2C(=O)NO)cc1 [Compound (d)] | 490 nM
CC#CCOc1ccc(S(=O)(=O)N2C[C@H](O)[C@H](O)[C@@H](OC)[C@@H]2C(=O)NO)cc1 [Compound (a)] | > 650 nM
CC#CCOc1ccc(S(=O)(=O)N2C[C@H](O)[C@H](O)[C@@H](OCc3ccccc3)[C@@H]2C(=O)NO)cc1 [Compound (b)] | > 650 nM

Q. Consider the molecule shown here: CC#CCOc1ccc(S(=O)(=O)N2C[C@H](O)[C@H](O)[C@@H](OCC)[C@@H]2C(=O)NO)cc1 [Compound (e)] What is its recorded Ki?
A. > 650 nM
